- protocol: Metabolic stability test in pooled human liver microsomes
- Format: in vitro ADME
- condition: human liver microsomes 0.5 mg protein/mL, 1 mmol/L NADPH, 37° C., 30 minutes
attribute-measured: MS_h_% (remaining amount of compound after reaction, 0 minute = 100%)

molecule="Cc1ccn2c(C(=O)NCc3ccc(C4CCN(c5ccc(OC(F)(F)F)cn5)CC4)c(C)c3)c(C)nc2c1 [Compound I-1-7]" result=87%
molecule="Cc1nc2ccc(F)cn2c1C(=O)NCc1ccc(N2CC(c3ccc(OC(F)(F)F)cc3)C2)c(F)c1 [Compound I-2-8]" result=74.9%
molecule="CCc1nc2ccc(Cl)cn2c1C(=O)NCc1ccc(OC2CCC(Oc3ccc(OC(F)(F)F)cc3)CC2)c(F)c1.Cl (stereo not shown) [Compound I-3-20]" result=80.8%
molecule="Cc1nc2cc(C(F)(F)F)ccn2c1C(=O)NCc1ccc(C2CCN(c3ccc(OC(F)(F)F)cc3)CC2)c(F)c1 [Compound I-1-14]" result=79%
